Reported values of inhibition at 1 µM for individual entries
- Test target: panel of 255 wild-type kinases (Homo sapiens)
- Assay text: Kinase panel profiling at 1 µmol/L (MSA or IMAP), percentage inhibition
- Type: biochemical
- Settings: kinase TRKB; 1 µmol/L single concentration; read-out: %-inhibition at 1 µmol/L, TRKB
Reported property: inhibition at 1 µM (%)

CCN1C(=O)N(c2c(F)c(OC)cc(OC)c2F)Cc2cnc3[nH]c(CN4CCOCC4)cc3c21 [pemigatinib]	11
C[C@H](Nc1ncnc2nc[nH]c12)c1cc2cccc(Cl)c2c(=O)n1-c1ccccc1 [duvelisib]	-0.401
Cc1cc(Nc2ncnc3ccc(NC4=NC(C)(C)CO4)cc23)ccc1Oc1ccn2ncnc2c1 [tucatinib]	6
C=CC(=O)N1CCC([C@@H]2CCNc3c(C(N)=O)c(-c4ccc(Oc5ccccc5)cc4)nn32)CC1 [zanubrutinib]	6.58
CO[C@]1(C(=O)N[C@@H](C)c2ccc(-n3cc(F)cn3)nc2)CC[C@H](c2nc(C)cc(Nc3cc(C)[nH]n3)n2)CC1 [pralsetinib]	94
CCN1CCN(c2ccc(Nc3cc(N(C)C(=O)Nc4c(Cl)c(OC)cc(OC)c4Cl)ncn3)cc2)CC1 [infigratinib]	6
Cc1nc(NC(=O)N2CCC[C@H]2C(N)=O)sc1-c1ccnc(C(C)(C)C(F)(F)F)c1 [alpelisib]	-2.43
Cn1cnc2c(F)c(Nc3ccc(Br)cc3Cl)c(C(=O)NOCCO)cc21 [selumetinib]	4

###

Reported values of inhibition at 1 µM for individual entries
- Test target: panel of 255 wild-type kinases (Homo sapiens, UniProt Q15349)
- Sequence (Q15349 whole entry): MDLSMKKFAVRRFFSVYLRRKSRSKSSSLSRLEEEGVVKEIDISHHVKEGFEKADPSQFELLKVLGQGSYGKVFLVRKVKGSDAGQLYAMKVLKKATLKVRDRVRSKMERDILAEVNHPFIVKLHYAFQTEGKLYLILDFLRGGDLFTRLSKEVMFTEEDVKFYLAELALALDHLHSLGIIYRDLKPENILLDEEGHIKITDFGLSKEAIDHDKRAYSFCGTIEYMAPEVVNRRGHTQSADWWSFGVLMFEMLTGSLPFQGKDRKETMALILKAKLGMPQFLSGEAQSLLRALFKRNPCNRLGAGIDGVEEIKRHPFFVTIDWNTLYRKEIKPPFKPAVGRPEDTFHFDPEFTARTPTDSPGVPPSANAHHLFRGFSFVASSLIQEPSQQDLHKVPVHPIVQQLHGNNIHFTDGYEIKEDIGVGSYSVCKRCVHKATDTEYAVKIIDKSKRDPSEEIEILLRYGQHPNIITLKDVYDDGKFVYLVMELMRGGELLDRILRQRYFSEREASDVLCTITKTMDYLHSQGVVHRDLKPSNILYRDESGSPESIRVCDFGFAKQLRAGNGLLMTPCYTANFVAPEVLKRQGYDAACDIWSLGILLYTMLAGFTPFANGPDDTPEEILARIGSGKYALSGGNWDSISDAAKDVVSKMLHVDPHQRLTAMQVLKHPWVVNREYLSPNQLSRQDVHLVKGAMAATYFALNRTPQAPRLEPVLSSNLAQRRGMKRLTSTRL
- Assay text: Kinase panel profiling at 1 µmol/L (MSA or IMAP), percentage inhibition
- Format: biochemical
- Settings: kinase RSK3; 1 µmol/L single concentration; read-out: %-inhibition at 1 µmol/L, RSK3
Reported property: inhibition at 1 µM (%)

O=C(Nc1cnn2ccc(N3CCC[C@@H]3c3cc(F)ccc3F)nc12)N1CC[C@H](O)C1	-10
COC(=O)N[C@@H](C)CNc1nccc(-c2cn(C(C)C)nc2-c2cc(Cl)cc(NS(C)(=O)=O)c2F)n1	-3.36
COc1ccc(CN2C3CC2CN(c2ccc(-c4cc(OCC(C)(C)O)cn5ncc(C#N)c45)cn2)C3)cn1	56
C[C@H](Nc1ncnc2nc[nH]c12)c1cc2cccc(Cl)c2c(=O)n1-c1ccccc1	-0.46
Cn1cnc2c(F)c(Nc3ccc(Br)cc3Cl)c(C(=O)NOCCO)cc21	4.41
C[C@H]1Oc2cc(cnc2N)-c2c(nn(C)c2C#N)CN(C)C(=O)c2ccc(F)cc21	2.53
C=CC(=O)N1CCC([C@@H]2CCNc3c(C(N)=O)c(-c4ccc(Oc5ccccc5)cc4)nn32)CC1	-7
CCn1c(=O)c(-c2cc(NC(=O)Nc3ccccc3)c(F)cc2Br)cc2cnc(NC)cc21	12
CO[C@]1(C(=O)N[C@@H](C)c2ccc(-n3cc(F)cn3)nc2)CC[C@H](c2nc(C)cc(Nc3cc(C)[nH]n3)n2)CC1	64
Cn1cc(-c2cc3c(N4CCN(c5ncc([C@@](C)(N)c6ccc(F)cc6)cn5)CC4)ncnn3c2)cn1	10
COc1cc2ncnc(Nc3ccc(F)c(Cl)c3)c2cc1NC(=O)/C=C/CN1CCCCC1	27
FC(F)(F)c1ccc(CNc2ccc(Cc3c[nH]c4ncc(Cl)cc34)cn2)cn1	42
Cc1nc(NC(=O)N2CCC[C@H]2C(N)=O)sc1-c1ccnc(C(C)(C)C(F)(F)F)c1	-1.47
Cn1cnc2c(F)c(Nc3ccc(Br)cc3F)c(C(=O)NOCCO)cc21	-5
CCN1CCN(c2ccc(Nc3cc(N(C)C(=O)Nc4c(Cl)c(OC)cc(OC)c4Cl)ncn3)cc2)CC1	-0.616
CCc1nc(C(N)=O)c(Nc2ccc(N3CCC(N4CCN(C)CC4)CC3)c(OC)c2)nc1NC1CCOCC1	64
CCN1C(=O)N(c2c(F)c(OC)cc(OC)c2F)Cc2cnc3[nH]c(CN4CCOCC4)cc3c21	-7.51
Cc1cc(Nc2ncnc3ccc(NC4=NC(C)(C)CO4)cc23)ccc1Oc1ccn2ncnc2c1	2.84
